Values were extracted from PubChem BioAssay (NCI).

Would you mind telling me the reported GI50 of each entry?
Test system: SR leukemia
Assay: NCI tumour cell line growth inhibition, 48 h

What value of measured GI50 is listed for COc1cc(-c2cn(-c3ccc(Cl)cc3)c(C)c2C(=O)C(F)(F)F)cc(OC)c1OC ?
4920 nM

Input COc1cc(Nc2nc(N[C@H]3CCCC[C@@H]3N)nc3cc[nH]c(=O)c23)cc(OC)c1
800 nM

Input CO/N=C(\C)c1ccc(Nc2cc(-c3ccccc3)nc3c(O)cccc23)cc1
5510 nM

Input C=C1C(=O)O[C@H]2[C@H]1CC/C(COC(=O)N1CCC[C@H]1C(=O)Nc1ccc(OC)c(C(N)=O)c1O)=C\CC[C@@]1(C)O[C@@H]21
1590 nM

Input CC(CNC(Cc1ccccc1)c1ccccc1)NC(Cc1ccccc1)c1ccccc1 (stereo not given)
1840 nM

---

Test system: A549 NSCLC
Assay: NCI tumour cell line growth inhibition, 48 h
measured.attribute: GI50

Report GI50 for COc1ccc2c(c1)OC(N(C(C)=O)C(C)=O)=C(C#N)C2c1ccc(F)cc1 (stereo not drawn) tested on A549 NSCLC.
4.45 µM

Input CCCCN(Cc1ccc(F)cc1)c1ccc(CO)c(Cl)c1
7.38 µM

Input CC(=O)Nc1ccc2c(c1)oc(=O)c1cc(NC(C)=O)ccc12
> 100 µM

---

Would you mind telling me the reported TGI of each entry?
System: SK-MEL-5 melanoma
Test: NCI tumour cell line growth inhibition, 48 h

Report TGI for O=C(N/N=C\c1ccc2ccccc2c1)Nc1ccc([N+](=O)[O-])cc1 tested on SK-MEL-5 melanoma.
> 70.4 µM

Input Cn1c(-c2cccs2)cc(-c2cccs2)c1-c1ccsc1
> 100 µM

Input Cc1ccc(NC(=O)/C(=N\Nc2ccc([N+](=O)[O-])cc2[N+](=O)[O-])C2C(=O)NC(=O)NC2=O)cc1
> 100 µM

Input CC(=O)n1c2ccccc2c2nc3nc(Oc4ccc(C)cc4)c4ccccc4c3cc21
> 100 µM

Input C(=C\C(SCc1ccccc1)SCc1ccccc1)/c1ccccc1
> 10 µM

Input CC(=O)c1cc([N+](=O)[O-])ccc1OCC(=O)O
> 100 µM

---

Would you mind telling me the reported TGI of each entry?
System: A549 NSCLC
Test: NCI tumour cell line growth inhibition, 48 h

What value of measured TGI is listed for Cc1cccc(C(C)C)c1NC(=O)C(=O)CC(=O)c1c(C)n([O-])c2ccccc2[n+]1=O ?
> 100 µM

Input CC[C@H]1OC([C@H](O)C/C=C\C#C[Si](C)(C)C)C/C=C\C[C@H]1O[Si](C)(C)C(C)(C)C (stereo partly specified)
> 100 µM

Input O=C(N/N=C\c1ccc2ccccc2c1)Nc1ccc([N+](=O)[O-])cc1
> 85 µM

Input NNC(=O)CCC(=O)NC1C2CC3CC(C2)CC1C3 (stereo unspecified)
> 100 µM

Input CCN(CC)C(=S)SS(=O)(=O)c1ccc([N+](=O)[O-])cc1
> 100 µM

Input Brc1ccccc1-c1ncc(-c2ccccc2)o1
> 100 µM

---

System: CAKI-1 renal
Experiment: NCI tumour cell line growth inhibition, 48 h
Would you mind telling me the reported GI50 of each entry?

What value of measured GI50 is listed for CC(C)(C)c1ccc(S(=O)(=O)N[C@H]2CC[C@H]3[C@@H]4CCc5cc(OS(=O)(=O)O)ccc5[C@H]4CC[C@]23C)cc1 ?
2770 nM

Input CN(C)c1ccc2cc(-c3ccccc3F)c(N)nc2c1
3170 nM

Input COc1cc(Nc2nc(N[C@H]3CCCC[C@@H]3N)nc3cc[nH]c(=O)c23)cc(OC)c1
1840 nM
